measurement notes: Survey of relative performance of fluorescent derivatizing agents against a cooling water background
Format: physicochemical
condition summary: 0.4 ppm (acid actives) aqueous solution
measured quantity: Fluorescent Maximum, emission (em) (nm)

// solved cases for Fluorescent Maximum, emission (em) follow
input smiles	measured quantity	unit text	reported value
Nc1cc(S(=O)(=O)O)ccc1S(=O)(=O)O	Fluorescent Maximum, emission (em)	nm	380
Nc1cc(S(=O)(=O)O)c2cccc(S(=O)(=O)O)c2c1	Fluorescent Maximum, emission (em)	nm	440
Nc1ccc2cc(S(=O)(=O)O)ccc2c1	Fluorescent Maximum, emission (em)	nm	420

a = Nc1cccc2ccc(S(=O)(=O)O)cc12
b = O=S(=O)(O)c1cccc2c(S(=O)(=O)O)cccc12
Sort a and b by Fluorescent Maximum, emission (em) descending and give the first. API: response body contains the label of the selected item. a

---

measurement notes: Survey of relative performance of fluorescent derivatizing agents against a cooling water background
Assay type: physicochemical
condition summary: 0.4 ppm (acid actives) aqueous solution
measured quantity: Fluorescent Maximum, excitation (ex) (nm)

input smiles	measured quantity	unit text	reported value
Nc1ccc2ccccc2c1S(=O)(=O)O	Fluorescent Maximum, excitation (ex)	nm	245
Nc1ccc2c(S(=O)(=O)O)cc(S(=O)(=O)O)cc2c1	Fluorescent Maximum, excitation (ex)	nm	250
Nc1cccc2ccc(S(=O)(=O)O)cc12	Fluorescent Maximum, excitation (ex)	nm	340
Nc1cc2ccc(S(=O)(=O)O)cc2cc1S(=O)(=O)O	Fluorescent Maximum, excitation (ex)	nm	250
Nc1ccc2cc(S(=O)(=O)O)ccc2c1	Fluorescent Maximum, excitation (ex)	nm	245
Nc1cccc2cc(S(=O)(=O)O)ccc12	Fluorescent Maximum, excitation (ex)	nm	245
Nc1cccc2c(S(=O)(=O)O)cccc12	Fluorescent Maximum, excitation (ex)	nm	240
Nc1ccccc1C(=O)O	Fluorescent Maximum, excitation (ex)	nm	240
Nc1cc(S(=O)(=O)O)c2cccc(S(=O)(=O)O)c2c1	Fluorescent Maximum, excitation (ex)	nm	245
Nc1ccc(S(=O)(=O)O)c2ccccc12	Fluorescent Maximum, excitation (ex)	nm	325
Nc1ccc2c(S(=O)(=O)O)cccc2c1	Fluorescent Maximum, excitation (ex)	nm	245
O=S(=O)(O)c1cccc2c(S(=O)(=O)O)cccc12	Fluorescent Maximum, excitation (ex)	nm	290
Nc1ccc2cc(S(=O)(=O)O)cc(S(=O)(=O)O)c2c1	Fluorescent Maximum, excitation (ex)	nm	250
Nc1ccc2cccc(S(=O)(=O)O)c2c1	Fluorescent Maximum, excitation (ex)	nm	240
Nc1ccc(S(=O)(=O)O)c2cccc(S(=O)(=O)O)c12	Fluorescent Maximum, excitation (ex)	nm	255
Cc1ccc(N)c(S(=O)(=O)O)c1	Fluorescent Maximum, excitation (ex)	nm	240
Nc1ccc(S(=O)(=O)O)cc1	Fluorescent Maximum, excitation (ex)	nm	250

---

measurement notes: Survey of relative performance of fluorescent derivatizing agents against a cooling water background
Type: physicochemical
condition summary: composition relative intensity / cooling water background relative intensity
measured quantity: Relative Performance

// solved cases for Relative Performance follow
compound	Relative Performance
Nc1cccc(C(=O)O)c1 [3-amino-benzoic acid]	3
Nc1ccc(S(=O)(=O)O)c2cccc(S(=O)(=O)O)c12 [1-amino-4,8-naphthalene disulfonic acid]	5
Nc1ccccc1 [aniline]	1
Nc1ccc2c(S(=O)(=O)O)cc(S(=O)(=O)O)cc2c1 [2-amino-5,7-naphthalene disulfonic acid]	97

I = Nc1cccc2ccc(S(=O)(=O)O)cc12 [1-amino-7-naphthalene sulfonic acid]
II = Nc1cc(S(=O)(=O)O)ccc1S(=O)(=O)O [amino-2,5-benzene disulfonic acid]
III = O=S(=O)(O)c1cccc2c(S(=O)(=O)O)cccc12 [1,5-naphthalene disulfonic acid]
Order by Relative Performance, ascending. Provide the labels, sequenced as the question asks. II, I, III
(II: 4, I: 7, III: 14)

Origin of values: patent US5260386A
